Reference source: PubChem BioAssay AID1963841

System: 439559-082-T-J2-PDC spheroid viability;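 also: spheroids exposed to compounds for seven days before readout; 100% = DMSO vehicle control viability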
PROCEDURE DETAILS: Anticancer human tumor 439559-082-T-J2-PDC patient-derived colon adenocarcinoma cell line growth inhibition [POLQ]
EXPERIMENTAL PARAMETERS: second compound 1 µM; first compound 0.001 µM; stronger effect = lower value; spheroids with HUVEC and MSC

COMPOUND	viability, T/C (%)
CC[C@@]1(O)C(=O)OCc2c1cc1n(c2=O)Cc2cc3c(CN(C)C)c(O)ccc3nc2-1 + COC1C(OC(N)=O)C(O)C(Oc2ccc3c(O)c(NC(=O)c4ccc(O)c(CC=C(C)C)c4)c(=O)oc3c2C)OC1(C)C	115
Cn1ncnc1[C@H]1c2n[nH]c(=O)c3cc(F)cc(c23)N[C@@H]1c1ccc(F)cc1 + Cc1cccc(N(C)C(=O)C2C(O)CCN2c2nc(C)cc(C(F)(F)F)c2C#N)c1	96.5
Cn1ncnc1[C@H]1c2n[nH]c(=O)c3cc(F)cc(c23)N[C@@H]1c1ccc(F)cc1 + COC1C(OC(N)=O)C(O)C(Oc2ccc3c(O)c(NC(=O)c4ccc(O)c(CC=C(C)C)c4)c(=O)oc3c2C)OC1(C)C	97.1
Cn1ncnc1[C@H]1c2n[nH]c(=O)c3cc(F)cc(c23)N[C@@H]1c1ccc(F)cc1 + Nc1ccc(C#CCN(C(=O)Cc2ncc(C(F)(F)F)cc2C(F)(F)F)c2ccc(F)cc2)nn1	105
CC[C@@]1(O)C(=O)OCc2c1cc1n(c2=O)Cc2cc3c(CN(C)C)c(O)ccc3nc2-1 + Nc1ccc(C#CCN(C(=O)Cc2ncc(C(F)(F)F)cc2C(F)(F)F)c2ccc(F)cc2)nn1	98.6
CC[C@@]1(O)C(=O)OCc2c1cc1n(c2=O)Cc2cc3c(CN(C)C)c(O)ccc3nc2-1 + Cc1cccc(N(C)C(=O)C2C(O)CCN2c2nc(C)cc(C(F)(F)F)c2C#N)c1	96.5
